- Tested on: cancer cell lines
- assay-method-text: Cancer cell proliferation activity of representative nucleosides, CellTiterGlo 72 h (Example 7, Tables 8 and 9)
- Format: cell-based
- experimental-context: Homo sapiens, HCT-15, 72 h, HCT15, colon, 72 h
pIC50: −log10 of the molar value.
Reported pIC50 values are given for each entry in this list.

Worked cases, pIC50 given:
> print(dat)
                                   compound     assayed.target  measured.value
1  CC[C@]1(CO)O[C@@H](n2cnc3c(N)nc(N)nc32)C[C@@H]1O [compound 25]  cancer cell lines          < 4.30
2  C#C[C@]1(CO)O[C@@H](n2cnc3c(=O)[nH]c(N)nc32)C[C@@H]1O [compound 13]  cancer cell lines          < 4.30

### Prompt Value wanted: pIC50 (cancer cell lines) of entry C#C[C@]1(CO)O[C@@H](n2cc(F)c(=O)[nH]c2=O)C[C@@H]1O [compound 15]
### Response < 4.30

* * *

- Test system: cancer cell lines
- assay-method-text: Cancer cell proliferation activity of representative nucleosides, CellTiterGlo 72 h (Example 7, Tables 8 and 9)
- Type: cell-based
- experimental-context: Homo sapiens, MIA PaCa-2, 72 h, MIAPACA2, pancreas, 72 h
Reported IC50 values are given for each entry in this list.

Worked cases, IC50 given:
> print(dat)
                                   compound     assayed.target  measured.quantity  measured.value
1  C#C[C@]1(CO)O[C@@H](n2cc(F)c(=O)[nH]c2=O)C[C@@H]1O [compound 15]  cancer cell lines               IC50         > 50 µM
2  CC[C@]1(CO)O[C@@H](n2ccc(N)nc2=O)C[C@@H]1O [compound 21]  cancer cell lines               IC50         > 50 µM

Could you now consider this next compound?
### Prompt # IC50 lookup, item CC[C@]1(CO)O[C@@H](n2cnc3c(N)nc(N)nc32)C[C@@H]1O [compound 25]
### Response > 50 µM

* * *

- Tested on: cancer cell lines
- assay-method-text: Cancer cell proliferation activity of representative nucleosides, CellTiterGlo 72 h (Example 7, Tables 8 and 9)
- Format: cell-based
- experimental-context: Homo sapiens, A2780, 72 h, A2780, ovary, 72 h
pIC50: −log10 of the molar value.
measured-quantity: pIC50

> print(dat)
                         compound.structure  measured.value
1  CC[C@]1(CO)O[C@@H](n2cnc3c(N)nc(N)nc32)C[C@@H]1O          < 4.30
2  C#C[C@]1(CO)O[C@@H](n2cc(F)c(=O)[nH]c2=O)C[C@@H]1O          < 4.30

Could you now consider this next compound?
### Prompt # pIC50 lookup, item CC[C@]1(CO)O[C@@H](n2ccc(N)nc2=O)C[C@@H]1O
### Response < 4.30

The reported numbers originate from patent US20230293526A1.
